B1: tRNA (parent)
chain: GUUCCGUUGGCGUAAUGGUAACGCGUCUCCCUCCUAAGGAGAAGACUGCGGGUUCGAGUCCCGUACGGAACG

- Variants of: B1
- procedure summary: yeast fitness relative to wild type (ratio to wild type); higher = fitter; tRNA-Arg(CCU), competitive growth, 37 C, YPD
Fewer inactive variants are shown than the library holds.
Readings of yeast fitness for the listed variants

Below are worked cases with known answers.
| construct sequence | yeast fitness |
| --- | --- |
| GUUCCGUUGGCGUAAUGGUAACGCGUCUCCGUCCUAAGGAGAAGACUGCGGGUUAGUGCUCCGUACGGAACG | ≤ 0.5 |
| GUUCUGUUGGUGUACUGGUAACGCGUCUAACUCCUUACGAGAAGACUGCGGGUUCGAGUCUCGUAAGGAACG | ≤ 0.5 |
| GUUCGGUUGGCGUAAUGGUAACGCGCCUCCCUCCUAAGGAGGAGACUGCGGGUUCGGGUCUCGUACGGAACG | ≤ 0.5 |
| GUUCCGUUGGCGUAAUGGUAGAGCGUCUCCCUCCUAAGGAGAAGACUGAGGGUUCCAGUCCCGUACGGAACG | ≤ 0.5 |
| GUUCCGUUGGCGUAAUGGUAACGCGUCUCCCUCCUAAGGAGAAGACUACGGGUGCGAGUCCCGUACGGAUCG | ≤ 0.5 |
| GUUCCGUUGGCGUAAUGGUAACGCGUCUCCCUCCUAAGGAGAAGACUGUGGGUUCGAGUCACGUUCGGAACG | ≤ 0.5 |
| GUUCCGUUGGCGUAAUGGUACCGCGUCUCCCUCCUAAGGAGAAGACUGCGGGUUCGAGUCGGGUACGGAACG | ≤ 0.5 |
| GGUCCGUUGGCGUAAUGGUAACGCGUCUCCCUUGUAAGGAGAAGACUCCGGGUUCGAGUCCCGUACCGAACG | ≤ 0.5 |
| GUUCCGUUGGCGUAAUGGUAACGCGUCUACCUGCUAAGGAGAAGACUGCGGGUUCGAGUCCCGUACGGAGCG | ≤ 0.5 |
| GUUCCGUAGGCGAAAUGCUAACGGGUCUCCCGCCUAAGGAGAAGACUGCGGGUUCGAUUCCCGUACGGAACG | ≤ 0.5 |

*Q* Recall and state the measured yeast fitness for GUUCCGUUGGCGUAAUGGUCACGCGUCUCCCUCGUAAGGAGAUGACUGCGGGUUCGAGUCCCGUACGGAACG .
*A* ≤ 0.5

*Q* Report yeast fitness for GUUCUGUUGGCGUAAUGGUAACGCGUCUCCCUCCUAAGGAGAAGACUGCGGGUUCGAAUCUCGUACGGAGCG
*A* 0.797

*Q* Entry GUUCCGUUGACGUAAUGGUAACGCGUCUCCCUCCUAGGGAGAAGACUGGGGGUUCGAGUCCCGUACGGAACG needs its yeast fitness filled in; supply it.
*A* ≤ 0.5
